Reference source for all entries: patent US10597388B2

# Tested on: galium (catchweed bedstraw, Galium aparine)
# experiment.description: Test D controlled growth environment herbicide test, pre- and postemergence
# Format: in vivo
# conditions.used: Preemergence, 31 g ai/ha
readout.kind: Plant response rating (scale of 0 to 100), Galium

                           smiles_structure                           subject_of_test  measured_value
0       Cc1ccc2ccccc2c1-c1c(O)c(C)nn(C)c1=O  galium (catchweed bedstraw, Galium aparine)              95
1  CCC(=O)Oc1c(C)nn(C)c(=O)c1-c1c(C)sc2c(C)cc(C)cc12  galium (catchweed bedstraw, Galium aparine)              15
2  CC(=O)Oc1c(Br)nn(C)c(=O)c1-c1c(C)ccc2ccccc12  galium (catchweed bedstraw, Galium aparine)              75
3  CCC(=O)Oc1c(C)nn(C)c(=O)c1-c1c(C)sc2ccc(C)cc12  galium (catchweed bedstraw, Galium aparine)              70
4  CCC(=O)Oc1c(C)nn(C)c(=O)c1-c1c(C)sc2ccc(Cl)cc12  galium (catchweed bedstraw, Galium aparine)              40

====

# System: pigweed (Amaranthus retroflexus)
# experiment.description: Test C greenhouse herbicide test, pre- and postemergence
# Format: in vivo
# conditions.used: Postemergence, 31 g ai/ha; scale 0 to 100 (0 no effect, 100 complete control)
One threshold, 80, splits the recorded Plant response rating, Pigweed values: lower ones are fulfilled, equal or higher ones are not fulfilled.

>>> print(df.to_string())
                           smiles_structure    class_label
0  CSCC(=O)Oc1c(C)nn(C)c(=O)c1-c1cccc2ccccc12      fulfilled
1  CCC(=O)Oc1c(C)nn(C)c(=O)c1-c1c(C)sc2ccc(Cl)cc12  not fulfilled
2  Cc1nn(C)c(=O)c(-c2cc(F)cc3ccccc23)c1OS(C)(=O)=O      fulfilled
3  COC(=O)Oc1cnn(C)c(=O)c1-c1c(C)ccc2ccccc12      fulfilled

====

# Test system: foxtail, giant (giant foxtail, Setaria faberii)
# experiment.description: Test A greenhouse herbicide test, pre- and postemergence
# Format: in vivo
# conditions.used: Preemergence, 500 g ai/ha; 0 to 100 scale where 0 is no effect and 100 is complete control
# binning rule on Plant response rating, Foxtail, Giant: LOW: < 40; MEDIUM: ≥ 40 and < 90; HIGH: ≥ 90

>>> print(df.to_string())
                            smiles_structure                           subject_of_test  class_label
 0  CC(=O)Oc1c(Br)nn(C)c(=O)c1-c1c(C)ccc2ccccc12  foxtail, giant (giant foxtail, Setaria faberii)         HIGH
 1  Cc1sc2ccccc2c1-c1c(OC(=O)OC(C)C)c(Cl)nn(C)c1=O  foxtail, giant (giant foxtail, Setaria faberii)       MEDIUM
 2   C#Cc1ccc2cccc(-c3c(O)c(C)nn(C)c3=O)c2c1  foxtail, giant (giant foxtail, Setaria faberii)          LOW
 3  COc1nn(C)c(=O)c(-c2c(C)ccc3ccccc23)c1OC(C)=O  foxtail, giant (giant foxtail, Setaria faberii)         HIGH
 4   Cc1nn(C)c(=O)c(-c2cccc3ccc(C#N)cc23)c1O  foxtail, giant (giant foxtail, Setaria faberii)       MEDIUM
 5  Cc1ccc2ccccc2c1-c1c(OC(=O)C2CC2)c(C)nn(C)c1=O  foxtail, giant (giant foxtail, Setaria faberii)          LOW
 6        Cc1n[nH]c(=O)c(-c2cccc3ccccc23)c1O  foxtail, giant (giant foxtail, Setaria faberii)          LOW
 7  CCC(=O)Oc1c(C)nn(C)c(=O)c1-c1ccc(Br)c2ccccc12  foxtail, giant (giant foxtail, Setaria faberii)       MEDIUM
 8  CC(=O)Oc1ccc2cccc(-c3c(OC(C)=O)c(C)nn(C)c3=O)c2c1  foxtail, giant (giant foxtail, Setaria faberii)          LOW
 9  Cc1cc(C)c2sc(C)c(-c3c(OC(=O)OCCCl)c(C)nn(C)c3=O)c2c1  foxtail, giant (giant foxtail, Setaria faberii)         HIGH
10  Cc1ccc2sc(C)c(-c3c(OCC#N)c(C)nn(C)c3=O)c2c1  foxtail, giant (giant foxtail, Setaria faberii)          LOW
11  CC(=O)Oc1c(C)nn(C)c(=O)c1-c1c(C)cc(C)c2ccccc12  foxtail, giant (giant foxtail, Setaria faberii)         HIGH
12  Cc1nn(C)c(=O)c(-c2c(C)sc3ccc(Cl)cc23)c1O  foxtail, giant (giant foxtail, Setaria faberii)         HIGH
13  Cc1nn(C)c(=O)c(-c2ccc(F)c3ccccc23)c1OC(=O)CC(F)(F)F  foxtail, giant (giant foxtail, Setaria faberii)       MEDIUM
14  COC(=O)Oc1c(Cl)nn(C)c(=O)c1-c1c(C)sc2ccc(Cl)cc12  foxtail, giant (giant foxtail, Setaria faberii)       MEDIUM
15  Cc1ccc2ccccc2c1-c1c(OC(=O)N2CCOCC2)c(Br)nn(C)c1=O  foxtail, giant (giant foxtail, Setaria faberii)          LOW
